B1: Homeobox protein cut-like 1, residues 548 to 629; numbered along this chain, P39880 (parent)
chain: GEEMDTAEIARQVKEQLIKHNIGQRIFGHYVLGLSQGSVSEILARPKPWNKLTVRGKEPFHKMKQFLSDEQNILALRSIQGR

Variants of: B1
experiment.description: abundance fitness (aPCA) (normalised: wild type 0, dead -1); higher = more abundant; growth selection in yeast, the domain comes from the species named
condition: Homo sapiens
Hi, to clarify the labels: met covers abundance fitness from -0.07 upward, not met covers anything below -0.07.

mutation.label | qualitative.label
Q71P | not met
R82T | met
K19C | not met
G28N | not met
K51W | not met
G56N | not met
G37I | not met
R45A | met
P59L | met
K47I | not met

Switching to the query record.
Task: Has I79L a recorded abundance fitness greater than or equal to -0.07?
Output: met
